meta.source: patent US5300672A

System: Pythium ultimum
procedure-details: Pythium ultimum in vitro Fungitoxicity Assay in liquid culture
Format: cell-based, Pythium ultimum (ATCC 26083)
assay-setup: Globisporangium ultimum; mycelial dry weight, 48 h at 25° C., shaking at 60 rpm; read-out: EC 50
observable: EC50 (µg/mL)
Numbers only, in µg/mL.

>>> reading("O=C(/C=C\\SC(=O)c1ccccc1)NCCN1CCOCC1 [Compound 116]")
10.3

Could you tell me EC50 for each of these molecules? They are listed below.
1. CCCCCCCCNC(=O)/C=C\SC(=O)c1ccc(N=C=S)cc1 [Compound 48]
2. CCCCCCCCNC(=O)/C=C\SC(=O)c1cccn1C [Compound 61]

Response given:
[8.2, 59.5]

----------
For each entry below, report its pest or weed control at 100 ppm value.
System: Phytophthora infestans
procedure-details: whole plant or invertebrate
Type: in vivo
assay-setup: Phytophthora infestans, in Solanum lycopersicum, 96 h, read-out: % Control TLB
Give bare numbers, in %.

In the examples that follow, each entry is paired with its recorded pest or weed control at 100 ppm.
>>> reading("CCCCCCCCNC(=O)/C=C\\SC(=O)CC [Compound 10, N-octyl-cis-3-(propanoylthio)acrylamide]")
90
>>> reading("CCCCCCCCNC(=O)/C=C\\SC[C@H](N)C(=O)O")
90

Challenge: Enter pest or weed control at 100 ppm (test system Phytophthora infestans) for CCCCCCCCNC(=O)/C=C\SC(=O)CC(=O)OCC
Response given: 90
